# System: mononuclear cells (MNCs)
# ASSAY NAME: Cellular viability assay on mononuclear cells
# Assay type: cell-based, human
MEASUREMENT NAME: cell viability (%) at 0.25 mM
Use % as the unit, but write only the number.

Observe how each entry below is paired with its result.
INSERT INTO assay_data (smiles_notation, unit_abbrev, observed_value) VALUES
  ('Fc1cccc(-n2c(S)nnc2Cc2ccccc2Nc2c(Cl)cccc2Cl)c1', '%', 96),
  ('Clc1ccc(Nc2nnc(Cc3ccccc3Nc3c(Cl)cccc3Cl)o2)c(Cl)c1', '%', 43),
  ('CCSc1nnc(Cc2ccccc2Nc2c(Cl)cccc2Cl)n1-c1ccc(Cl)c(Cl)c1', '%', 98),
  ('Clc1ccc(Nc2nnc(Cc3ccccc3Nc3c(Cl)cccc3Cl)s2)cc1Cl', '%', 95);

Prompt: Item Clc1ccc(Nc2nnc(Cc3ccccc3Nc3c(Cl)cccc3Cl)o2)cc1Cl has what recorded cell viability (%) at 0.25 mM?
Completion: 59

Prompt: Item CCCSc1nnc(Cc2ccccc2Nc2c(Cl)cccc2Cl)n1-c1ccc(F)cc1 has what recorded cell viability (%) at 0.25 mM?
Completion: 85

Prompt: Item O=C(Cc1ccccc1Nc1c(Cl)cccc1Cl)NNC(=S)Nc1ccc(Cl)cc1Cl has what recorded cell viability (%) at 0.25 mM?
Completion: 64

Prompt: Item Sc1nnc(Cc2ccccc2Nc2c(Cl)cccc2Cl)n1-c1ccc(Cl)c(Cl)c1 has what recorded cell viability (%) at 0.25 mM?
Completion: 97

Prompt: Item CCSc1nnc(Cc2ccccc2Nc2c(Cl)cccc2Cl)n1-c1ccc(F)cc1 has what recorded cell viability (%) at 0.25 mM?
Completion: 88

---

# ASSAY NAME: Cellular viability assay on mononuclear cells
# Type: cell-based, human
# SETUP CONDITIONS: human, mononuclear cells (MNCs) isolated from blood, read-out: cell viability (%) at 0.25 mM
Listed next: entries and their corresponding viability at 0.25 mM.
Use % as the unit, but write only the number.

INSERT INTO assay_data (molecule, measurement_name, observed_value) VALUES
  ('O=P1(N(CCCl)CCCl)NCCCO1 (stereo not drawn) [cyclophosphamide, reference compound]', 'viability at 0.25 mM', 56),
  ('O=c1c(O)c(-c2ccc(O)c(O)c2)oc2cc(O)cc(O)c12 [quercetin, reference compound]', 'viability at 0.25 mM', 92);

Prompt: Item COc1cc(/C=C/C(=O)CC(=O)/C=C/c2ccc(O)c(OC)c2)ccc1O [curcumin, reference compound] has what recorded viability at 0.25 mM?
Completion: 74

---

# MEASURED TARGET: α-glucosidase (Saccharomyces cerevisiae)
# Sequence (P53341 whole entry): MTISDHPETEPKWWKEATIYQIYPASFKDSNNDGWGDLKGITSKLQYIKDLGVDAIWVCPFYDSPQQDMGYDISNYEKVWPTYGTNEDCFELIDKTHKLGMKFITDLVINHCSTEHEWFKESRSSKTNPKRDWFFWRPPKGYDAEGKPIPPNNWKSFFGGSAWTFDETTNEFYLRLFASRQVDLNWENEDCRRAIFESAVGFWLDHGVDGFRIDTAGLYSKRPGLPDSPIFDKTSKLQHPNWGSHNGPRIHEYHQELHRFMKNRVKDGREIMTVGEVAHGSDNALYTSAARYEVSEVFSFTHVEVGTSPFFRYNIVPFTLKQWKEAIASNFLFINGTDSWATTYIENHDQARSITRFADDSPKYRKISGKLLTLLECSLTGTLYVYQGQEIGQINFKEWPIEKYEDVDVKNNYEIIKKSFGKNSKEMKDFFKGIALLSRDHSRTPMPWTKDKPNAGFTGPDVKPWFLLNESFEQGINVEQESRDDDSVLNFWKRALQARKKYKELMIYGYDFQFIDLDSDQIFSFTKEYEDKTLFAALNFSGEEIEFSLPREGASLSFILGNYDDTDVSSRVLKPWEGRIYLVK
# ASSAY NAME: In vitro α-glucosidase inhibition assay
# Type: biochemical
# SETUP CONDITIONS: NA = not active, read-out: IC50 (µM) ± SEM α-glucosidase
Listed next: entries and their corresponding IC50.
Use µM as the unit, but write only the number.

Observe how each entry below is paired with its result.
INSERT INTO measurements (smiles_notation, observed_value) VALUES
  ('CCSc1nnc(Cc2ccccc2Nc2c(Cl)cccc2Cl)n1-c1ccc(F)cc1', 116),
  ('O=C(Cc1ccccc1Nc1c(Cl)cccc1Cl)NNC(=S)Nc1ccc(Cl)c(Cl)c1', 93),
  ('CCSc1nnc(Cc2ccccc2Nc2c(Cl)cccc2Cl)n1-c1ccc(Cl)c(Cl)c1', 132),
  ('O=C(Cc1ccccc1Nc1c(Cl)cccc1Cl)NNC(=S)Nc1cccc(F)c1', 5);

Now turn to the next molecule.
Prompt: Item Fc1cccc(-n2c(S)nnc2Cc2ccccc2Nc2c(Cl)cccc2Cl)c1 has what recorded IC50?
Completion: 308

---

# System: mononuclear cells (MNCs)
# ASSAY NAME: Cellular viability assay on mononuclear cells
# Type: cell-based, human
# Protocol: All of the chemicals and solvents were obtained from Sigma-Aldrich and used directly without any purification. Mononuclear cells were isolated from the blood samples taken from healthy volunteers. Diclofenac acid was purchased from Alfa Aesar. […] On a Finnegan MAT-311A mass spectrometer, high-resolution mass spectrometry using electron ionization (HRMS (EI)) data were recorded. Using the Stuart melting point apparatus, melting points in open capillaries were determined (SMP10). […]
MEASUREMENT NAME: cell viability (%) at 0.25 mM
Use % as the unit, but write only the number.

Observe how each entry below is paired with its result.
INSERT INTO assay_data (smiles_notation, measured_target, measurement_name, observed_value) VALUES
  ('O=C(Cc1ccccc1Nc1c(Cl)cccc1Cl)NNC(=S)Nc1cccc(F)c1', 'mononuclear cells (MNCs)', 'cell viability (%) at 0.25 mM', 82),
  ('Fc1ccccc1Nc1nnc(Cc2ccccc2Nc2c(Cl)cccc2Cl)s1', 'mononuclear cells (MNCs)', 'cell viability (%) at 0.25 mM', 86),
  ('Fc1ccc(Nc2nnc(Cc3ccccc3Nc3c(Cl)cccc3Cl)s2)cc1', 'mononuclear cells (MNCs)', 'cell viability (%) at 0.25 mM', 76),
  ('CCCSc1nnc(Cc2ccccc2Nc2c(Cl)cccc2Cl)n1-c1ccc(Cl)c(Cl)c1', 'mononuclear cells (MNCs)', 'cell viability (%) at 0.25 mM', 78),
  ('O=C(Cc1ccccc1Nc1c(Cl)cccc1Cl)NNC(=S)Nc1ccccc1F', 'mononuclear cells (MNCs)', 'cell viability (%) at 0.25 mM', 79);

Now turn to the next compound.
Prompt: For mononuclear cells (MNCs), provide cell viability (%) at 0.25 mM of Fc1ccc(Nc2nnc(Cc3ccccc3Nc3c(Cl)cccc3Cl)o2)cc1 please.
Completion: 63

---

# MEASURED TARGET: soybean 15-LOX (Glycine max, UniProt P08170)
# Sequence (P08170 whole entry): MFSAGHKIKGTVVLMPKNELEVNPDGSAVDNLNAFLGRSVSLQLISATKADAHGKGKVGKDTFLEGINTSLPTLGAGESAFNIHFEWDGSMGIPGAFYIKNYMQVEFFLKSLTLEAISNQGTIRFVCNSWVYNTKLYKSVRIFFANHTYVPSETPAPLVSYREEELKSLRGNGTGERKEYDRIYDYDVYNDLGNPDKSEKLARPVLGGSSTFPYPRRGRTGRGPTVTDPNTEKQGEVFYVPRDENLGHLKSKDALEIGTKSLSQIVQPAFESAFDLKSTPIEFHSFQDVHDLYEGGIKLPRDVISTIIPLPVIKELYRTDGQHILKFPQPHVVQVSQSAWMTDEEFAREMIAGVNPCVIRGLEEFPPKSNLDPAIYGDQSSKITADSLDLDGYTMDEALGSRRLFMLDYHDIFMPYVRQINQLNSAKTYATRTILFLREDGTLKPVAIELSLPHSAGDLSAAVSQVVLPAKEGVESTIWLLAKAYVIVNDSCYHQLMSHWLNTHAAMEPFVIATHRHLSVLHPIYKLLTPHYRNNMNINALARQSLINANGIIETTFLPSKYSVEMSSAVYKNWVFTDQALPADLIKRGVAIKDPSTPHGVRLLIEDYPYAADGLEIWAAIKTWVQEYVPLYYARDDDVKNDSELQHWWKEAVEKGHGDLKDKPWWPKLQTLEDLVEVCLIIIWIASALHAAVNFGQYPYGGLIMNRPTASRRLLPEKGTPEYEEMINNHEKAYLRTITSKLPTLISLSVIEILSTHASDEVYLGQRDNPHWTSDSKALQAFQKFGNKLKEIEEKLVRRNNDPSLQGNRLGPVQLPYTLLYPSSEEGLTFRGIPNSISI
# ASSAY NAME: In vitro 15-lipoxygenase inhibition assay
# Format: biochemical
# SETUP CONDITIONS: read-out: IC50 (µM) ± SEM 15-LOX
Listed next: entries and their corresponding IC50.
Use µM as the unit, but write only the number.

Prompt: Item Fc1cccc(Nc2nnc(Cc3ccccc3Nc3c(Cl)cccc3Cl)o2)c1 has what recorded IC50?
Completion: 87

Prompt: Item Sc1nnc(Cc2ccccc2Nc2c(Cl)cccc2Cl)n1-c1ccc(Cl)c(Cl)c1 has what recorded IC50?
Completion: 75

Prompt: Item Clc1ccc(Nc2nnc(Cc3ccccc3Nc3c(Cl)cccc3Cl)o2)c(Cl)c1 has what recorded IC50?
Completion: 172

---

Listed next: entries and their corresponding IC50.
# MEASURED TARGET: α-glucosidase (Saccharomyces cerevisiae)
# ASSAY NAME: In vitro α-glucosidase inhibition assay
# Assay type: biochemical
# SETUP CONDITIONS: NA = not active, read-out: IC50 (µM) ± SEM α-glucosidase
Use µM as the unit, but write only the number.

Observe how each entry below is paired with its result.
INSERT INTO assay_data (molecule, measured_target, observed_value) VALUES
  ('O=C(Cc1ccccc1Nc1c(Cl)cccc1Cl)NNC(=S)Nc1cccc(Cl)c1Cl [4d]', 'α-glucosidase (Saccharomyces cerevisiae)', 28),
  ('Fc1ccccc1Nc1nnc(Cc2ccccc2Nc2c(Cl)cccc2Cl)o1 [7a]', 'α-glucosidase (Saccharomyces cerevisiae)', 7),
  ('Fc1ccccc1Nc1nnc(Cc2ccccc2Nc2c(Cl)cccc2Cl)s1 [8a]', 'α-glucosidase (Saccharomyces cerevisiae)', 99);

Prompt: Item Fc1ccc(Nc2nnc(Cc3ccccc3Nc3c(Cl)cccc3Cl)o2)cc1 [7c] has what recorded IC50?
Completion: 85

Prompt: Item Fc1cccc(Nc2nnc(Cc3ccccc3Nc3c(Cl)cccc3Cl)s2)c1 [8b] has what recorded IC50?
Completion: 11

Prompt: Item Clc1ccc(Nc2nnc(Cc3ccccc3Nc3c(Cl)cccc3Cl)s2)cc1Cl [8f] has what recorded IC50?
Completion: 125

Prompt: Item Clc1ccc(Nc2nnc(Cc3ccccc3Nc3c(Cl)cccc3Cl)o2)c(Cl)c1 [7e] has what recorded IC50?
Completion: 61

Prompt: Item Fc1cccc(Nc2nnc(Cc3ccccc3Nc3c(Cl)cccc3Cl)o2)c1 [7b] has what recorded IC50?
Completion: 3

Prompt: Item O=C(Cc1ccccc1Nc1c(Cl)cccc1Cl)NNC(=S)Nc1ccc(Cl)cc1Cl [4e] has what recorded IC50?
Completion: 87

Prompt: Item Sc1nnc(Cc2ccccc2Nc2c(Cl)cccc2Cl)n1-c1ccc(Cl)c(Cl)c1 [5f] has what recorded IC50?
Completion: 247

Prompt: Item Fc1ccccc1-n1c(S)nnc1Cc1ccccc1Nc1c(Cl)cccc1Cl [5a] has what recorded IC50?
Completion: 202

---

# Tested on: mononuclear cells (MNCs)
# ASSAY NAME: Cellular viability assay on mononuclear cells
# Assay type: cell-based, human
MEASUREMENT NAME: cell viability (%) at 0.25 mM
Use % as the unit, but write only the number.

Observe how each entry below is paired with its result.
INSERT INTO measurements (smiles_notation, observed_value) VALUES
  ('Sc1nnc(Cc2ccccc2Nc2c(Cl)cccc2Cl)n1-c1cccc(Cl)c1Cl', 96),
  ('Fc1ccccc1-n1c(S)nnc1Cc1ccccc1Nc1c(Cl)cccc1Cl', 97);

Now turn to the next compound.
Prompt: Item Sc1nnc(Cc2ccccc2Nc2c(Cl)cccc2Cl)n1-c1ccc(Cl)cc1Cl has what recorded cell viability (%) at 0.25 mM?
Completion: 94
